system_name: von Willebrand factor (VWF), purified plasma-derived, multimeric, native (UniProt P04275)
experiment_summary: microtiter plate binding (ELISA format, anti-V5 detection), VWF immobilised, static
pKd: −log10 of the molar value.
outcome_measure: pKd

substance	system_name	pKd
ADAMTS13 variant truncated after the spacer domain, C-terminal V5-His (from UniProt Q76LX8 75-685) (enzyme)	von Willebrand factor (VWF), purified plasma-derived, multimeric, native (UniProt P04275)	7.25
ADAMTS13 variant truncated after the 8th TSP-1 repeat (lacking the CUB domains), C-terminal V5-His (from UniProt Q76LX8 75-1191) (enzyme)	von Willebrand factor (VWF), purified plasma-derived, multimeric, native (UniProt P04275)	7.15
